Some molecules, each annotated with its measured IC50 cytotoxicity (DAPI nuclear signal decrease).
System: DAPI
EXPERIMENT NOTES: TAG lipid buildup inhibition with viability readout – cell-based, panel, Nile Red and DAPI fluorescence, H9c2, dose response (AID 651630);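 also: cells exposed to compound overnight before fixation and staining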
EXPERIMENTAL PARAMETERS: H9c2 cells, DAPI nuclear fluorescence (cytotoxicity counter-readout), oleic acid, mean of runs
The source made the active and inactive calls.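 The calls were made as follows: active = lipid-stain IC50 at or below a set limit, with nuclear-stain toxicity IC50 at least five times higher; inactive = the rest.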

Guide cases for IC50 cytotoxicity (DAPI nuclear signal decrease), answers given:
1) CCOC(=O)Cc1ccc(Nc2nc3cc(-c4sccc4C)sc3c(=O)n2C)cc1: > 25 µM (inactive)
2) CCN1CCN(Cc2ccc(NC(=O)c3ccc(C)c(NC(=O)C(=O)c4c[nH]c5ccccc45)c3)cc2C(F)(F)F)CC1: 23.8 µM (inactive)
3) COc1ccc(-c2sc3ccc(N4CCOCC4)cc3c2C#CC(C)(C)O)cc1: > 25 µM (inactive)
4) CC1(C(=O)Nc2cccc(Oc3ccccc3)c2)Cc2c(-c3ccc4c(c3)OCO4)ccnc2O1 (centres undefined): > 25 µM (inactive)
5) COc1ccc(CC(=O)Nc2ccc(-c3ccc4nnc(C)n4n3)cc2)cc1OC: > 25 µM (inactive)
6) Nc1ccc(C#Cc2c(-c3ccsc3)oc3ccc(N4CCOCC4)cc23)cc1: > 25 µM (inactive)

I am curious: what IC50 cytotoxicity (DAPI nuclear signal decrease) value has been reported for CCCCNC(=O)C(=O)Nc1ccc2c(c1)N(S(=O)(=O)c1cccs1)CCC2 ?
> 25 µM (inactive)

I am curious: what IC50 cytotoxicity (DAPI nuclear signal decrease) value has been reported for C[C@H](CO)N1C[C@H](C)[C@@H](CN(C)Cc2ccc(-c3ccccc3)cc2)Oc2c(NC(=O)Cc3ccccc3)cccc2C1=O ?
> 25 µM (inactive)

I am curious: what IC50 cytotoxicity (DAPI nuclear signal decrease) value has been reported for N#C/C(=C\Nc1ccc2cn[nH]c2c1)c1nc(-c2ccc(Cl)cc2)cs1 ?
17.8 µM (inactive)

###

Test system: TAG
EXPERIMENT NOTES: TAG lipid buildup inhibition with viability readout – cell-based, panel, Nile Red and DAPI fluorescence, H9c2, dose response (AID 651630);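 active = lipid-stain IC50 at or below a set limit, with nuclear-stain toxicity IC50 at least five times higher; inactive = the rest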;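 also: cells exposed to compound overnight before fixation and staining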
EXPERIMENTAL PARAMETERS: H9c2 cells, Nile Red TAG fluorescence, oleic acid, mean of runs
Outcomes you can answer with include only these: active, inactive

Record lookup: outcome of this test for CC1(c2ccccc2)O[C@@H]2C[C@H]3[C@@H]4CCC5=CC(=O)C=C[C@]5(C)[C@@]4(F)[C@@H](O)C[C@]3(C)[C@]2(C(=O)CO)O1 (stereo partly specified) ?
active

###

Test system: TAG
EXPERIMENT NOTES: TAG lipid buildup inhibition with viability readout – cell-based, panel, Nile Red and DAPI fluorescence, H9c2, dose response (AID 651630);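 also: cells exposed to compound overnight before fixation and staining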
EXPERIMENTAL PARAMETERS: H9c2 cells, Nile Red TAG fluorescence, oleic acid, mean of runs
Calls of active or inactive are those of the source.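 Rule for the calls: active = lipid-stain IC50 at or below a set limit, with nuclear-stain toxicity IC50 at least five times higher; inactive = the rest.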
Some compounds, each annotated with its measured IC50.

Guide cases for IC50, answers given:
1. COc1cc(-c2cnc3c(NC=O)cc(-c4cccnc4)cn23)cc(OC)c1OC: 15.8 µM (inactive)
2. COc1ccc(/C=C2/CCCc3ccccc3C2=O)cc1: > 25 µM (inactive)
3. Cc1ccc(-c2nc(NC(=O)c3cc(C(C)(C)C)nn3C)sc2C)cc1Cl: 5.56 µM
4. Cc1c(C#N)c(O)n(CCO)c(=O)c1N=Nc1ccc2c(c1)COC2=O: 16.5 µM (inactive)
5. COc1cccc(C2c3cc4c(cc3OC(NNC(N)=O)C2C)OCO4)c1O (stereo not given): > 25 µM (inactive)
6. COc1ccc(CCn2c(-n3nc(C)cc3C)nc3c2c(=O)[nH]c(=O)n3C)cc1: > 25 µM (inactive)
7. NC1=NC[C@H](Cc2ccccc2)N1CCc1cc(C(F)(F)F)cc(C(F)(F)F)c1: > 25 µM (inactive)
8. CCC(C)(C)C1CCC2(CC1)NC(=O)N(CC(=O)NCCc1ccc(OC)c(OC)c1)C2=O (stereo not given): 3.29 µM

Next compound, IC50 to be filled in.
I am curious: what IC50 value has been reported for Cc1ccc2c(c1)N(C(=O)CCC(=O)NCCCN1CCC(Cc3ccccc3)CC1)CCO2 ?
18.7 µM (inactive)
